Test: Photochromic response of polymeric test squares on an optical bench
Type: physicochemical
Conditions: time for absorbance of the activated form in the test squares to reach one half the highest absorbance at room temperature (75°F, 23.9°C) after removal of activating light
Strictly below 0.9 min in Bleach (T1/2): y. Otherwise: n.

[[record]]
query_smiles = "COc1ccc(C2(c3ccc(OC)cc3)C=Cc3c(-c4ccc(OC)cc4OC)c(OC(C)=O)c4ccccc4c3O2)cc1"
label = "n"

[[record]]
query_smiles = "COc1ccc(C2(c3ccc(OC)cc3)C=Cc3c(Sc4ccccc4)c(OC(C)=O)c4ccccc4c3O2)cc1"
label = "y"

[[record]]
query_smiles = "COc1ccc(C2(c3ccc(OC)cc3)C=Cc3c(-c4cccn4C)c(OC(C)=O)c4ccccc4c3O2)cc1"
label = "n"

[[record]]
query_smiles = "COc1ccc(C2(c3ccc(OC)cc3)C=Cc3c(Sc4ccccc4)c(O)c4ccccc4c3O2)cc1"
label = "n"

[[record]]
query_smiles = "COc1ccc(C2(c3ccc(OC)cc3)C=Cc3c(C)c(OC(C)=O)c4ccccc4c3O2)cc1"
label = "n"


---

Assay: Photochromic response of polymeric test squares on an optical bench
Format: physicochemical
Details: UV exposure continued for 20 minutes; test squares, 75°F (23.9°C)
measure.name: ΔOD@ SATURATION

[[record]]
compound = "COc1ccc(C2(c3ccc(OC)cc3)C=Cc3c(Sc4ccccc4)c(OC(C)=O)c4ccccc4c3O2)cc1 [Example 4]"
measurement = 0.23

[[record]]
compound = "COc1c(C)c2c(c3ccccc13)OC1(C=C2)C2CC3CC(C2)CC1C3 (stereo not shown) [Example 9]"
measurement = 0.17

[[record]]
compound = "COc1ccc(C2(c3ccc(OC)cc3)C=Cc3c(C)c(OC(C)=O)c4ccccc4c3O2)cc1 [Example 6]"
measurement = 0.37

[[record]]
compound = "Oc1c(Sc2ccccc2)c2c(c3ccccc13)OC1(C=C2)C2CC3CC(C2)CC1C3 (stereo not shown) [Example 7]"
measurement = 0.47

[[record]]
compound = "COc1ccc(C2(c3ccc(OC)cc3)C=Cc3c(C(O)(c4ccccc4)c4ccccc4)c(O)c4ccccc4c3O2)cc1 [Example 10]"
measurement = 0.32

[[record]]
compound = "COc1ccc(C2(c3ccc(OC)cc3)C=Cc3c(Cl)c(OC(C)=O)c4ccccc4c3O2)cc1 [Example 5]"
measurement = 0.07

[[record]]
compound = "CC(=O)Oc1c(Sc2ccccc2)c2c(c3ccccc13)OC1(C=C2)C2CC3CC(C2)CC1C3 (stereo not shown) [Example 8]"
measurement = 0.04

[[record]]
compound = "COc1ccc(C2(c3ccc(OC)cc3)C=Cc3c(Sc4ccccc4)c(O)c4ccccc4c3O2)cc1 [Example 3]"
measurement = 1.76

[[record]]
compound = "COc1ccc(C2(c3ccc(OC)cc3)C=Cc3c(-c4ccc(OC)cc4OC)c(OC(C)=O)c4ccccc4c3O2)cc1 [Example 2]"
measurement = 0.55

[[record]]
compound = "COc1ccc(C2(c3ccc(OC)cc3)C=Cc3c(-c4cccn4C)c(OC(C)=O)c4ccccc4c3O2)cc1 [Example 1]"
measurement = 0.25


---

Test: Photochromic response of polymeric test squares on an optical bench
Type: physicochemical
Details: measured over the first five (5) seconds of UV exposure, expressed on a per minute basis; test squares, 75°F (23.9°C)
Strictly below 0.1 in ΔOD/MIN SENSITIVITY: rule met. Otherwise: rule not met.

[[record]]
compound = "Oc1c(Sc2ccccc2)c2c(c3ccccc13)OC1(C=C2)C2CC3CC(C2)CC1C3 (stereo not shown) [Example 7]"
label = "rule not met"

[[record]]
compound = "COc1ccc(C2(c3ccc(OC)cc3)C=Cc3c(C(O)(c4ccccc4)c4ccccc4)c(O)c4ccccc4c3O2)cc1 [Example 10]"
label = "rule met"

[[record]]
compound = "COc1ccc(C2(c3ccc(OC)cc3)C=Cc3c(-c4ccc(OC)cc4OC)c(OC(C)=O)c4ccccc4c3O2)cc1 [Example 2]"
label = "rule not met"

[[record]]
compound = "COc1ccc(C2(c3ccc(OC)cc3)C=Cc3c(Sc4ccccc4)c(OC(C)=O)c4ccccc4c3O2)cc1 [Example 4]"
label = "rule not met"

[[record]]
compound = "COc1c(C)c2c(c3ccccc13)OC1(C=C2)C2CC3CC(C2)CC1C3 (stereo not shown) [Example 9]"
label = "rule not met"

[[record]]
compound = "COc1ccc(C2(c3ccc(OC)cc3)C=Cc3c(Cl)c(OC(C)=O)c4ccccc4c3O2)cc1 [Example 5]"
label = "rule met"

[[record]]
compound = "COc1ccc(C2(c3ccc(OC)cc3)C=Cc3c(C)c(OC(C)=O)c4ccccc4c3O2)cc1 [Example 6]"
label = "rule not met"

[[record]]
compound = "COc1ccc(C2(c3ccc(OC)cc3)C=Cc3c(Sc4ccccc4)c(O)c4ccccc4c3O2)cc1 [Example 3]"
label = "rule not met"

[[record]]
compound = "COc1ccc(C2(c3ccc(OC)cc3)C=Cc3c(-c4cccn4C)c(OC(C)=O)c4ccccc4c3O2)cc1 [Example 1]"
label = "rule not met"


---

Experiment: Lambda max of the activated (colored) form in a diethylene glycol bis(allyl carbonate) composition
Assay type: physicochemical
Settings: wavelength in the visible spectrum of maximum absorption of the activated (colored) form in a diethylene glycol bis(allyl carbonate) composition
measure.name: LAMBDA MAX (VISIBLE) (nm)

[[record]]
molecule = "COc1ccc(C2(c3ccc(OC)cc3)C=Cc3c(Sc4ccccc4)c(O)c4ccccc4c3O2)cc1"
endpoint_unit = "nm"
measurement = 516

[[record]]
molecule = "COc1ccc(C2(c3ccc(OC)cc3)C=Cc3c(-c4ccc(OC)cc4OC)c(OC(C)=O)c4ccccc4c3O2)cc1"
endpoint_unit = "nm"
measurement = 511

[[record]]
molecule = "COc1ccc(C2(c3ccc(OC)cc3)C=Cc3c(C)c(OC(C)=O)c4ccccc4c3O2)cc1"
endpoint_unit = "nm"
measurement = 506

[[record]]
molecule = "Oc1c(Sc2ccccc2)c2c(c3ccccc13)OC1(C=C2)C2CC3CC(C2)CC1C3 (stereo not shown)"
endpoint_unit = "nm"
measurement = 462


Value source: patent EP0994871B1
